biological target: Carbonic anhydrase 1 (Homo sapiens, UniProt P00915)
Sequence (P00915 whole entry): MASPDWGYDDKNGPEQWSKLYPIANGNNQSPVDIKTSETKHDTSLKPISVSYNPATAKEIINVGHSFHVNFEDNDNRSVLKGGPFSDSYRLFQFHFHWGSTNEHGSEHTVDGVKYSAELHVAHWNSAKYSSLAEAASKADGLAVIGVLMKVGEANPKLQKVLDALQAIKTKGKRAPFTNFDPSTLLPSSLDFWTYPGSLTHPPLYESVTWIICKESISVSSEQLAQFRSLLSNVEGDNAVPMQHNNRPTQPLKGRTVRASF
Readout: IC50 (µM)
// return numeric value only (unit: µM, not printed)

Input: Find the measured IC50: item `CC1(C)O[C@@H]2[C@@H](O)[C@H]3NC(=O)O[C@H]3C[C@@H]2O1` , target or system Carbonic anhydrase 1 (Homo sapiens, UniProt P00915).
Output: 45.6

###

target: Acyl-CoA (8-3)-desaturase (Homo sapiens); assay: Inhibition of human Delta 5 desaturase (unknown origin) expressed in human HepG2 cells
Sequence (O60427 whole entry): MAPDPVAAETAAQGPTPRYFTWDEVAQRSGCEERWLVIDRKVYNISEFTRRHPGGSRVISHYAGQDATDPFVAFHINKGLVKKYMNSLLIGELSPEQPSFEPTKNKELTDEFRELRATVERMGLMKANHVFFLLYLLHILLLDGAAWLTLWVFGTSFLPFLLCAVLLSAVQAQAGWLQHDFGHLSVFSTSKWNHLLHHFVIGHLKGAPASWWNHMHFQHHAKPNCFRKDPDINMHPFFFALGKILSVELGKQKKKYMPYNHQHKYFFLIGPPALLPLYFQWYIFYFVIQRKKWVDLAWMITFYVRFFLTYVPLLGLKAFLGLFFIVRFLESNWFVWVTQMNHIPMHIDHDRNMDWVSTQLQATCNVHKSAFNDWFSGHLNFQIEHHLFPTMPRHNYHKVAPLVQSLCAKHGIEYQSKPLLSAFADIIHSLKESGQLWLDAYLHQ
Readout: pIC50
Would you please state pIC50, meaning minus log10 of the concentration in mol/L, as a bare number?

Input: # pIC50 lookup, item `C[C@@H]1[C@@H](c2ccc(F)cc2)OC(=O)N1c1cc(C#N)cc(C#N)c1`
Output: 8.82

###

experiment: Toxicity in mouse; assay type: organism-based; conditions: in vivo
Readout: TD50

Input: # TD50 lookup, item `O=C(NCC(=O)N1CCN(c2ccc(N3C[C@H](Cn4ccnn4)OC3=O)cc2F)CC1)c1cccs1`
Output: > 500 mg/kg

###

tested on: TF-1; test: Anticancer activity against human TF-1 cells assessed as cell growth inhibition; format: functional, cell-based
Readout: IC50 (µM)
// return numeric value only (unit: µM, not printed)

Input: # IC50 lookup, item `C=C(CCCCC)[C@@H](O)[C@H](C)C(=O)N1C(=O)OC[C@@H]1C(C)C`
Output: 7.5

###

test system: HepG2; test: Anticancer activity against human HepG2 assessed as IL-6 induced luciferase activity; format: functional, cell-based
Readout: IC50 (µM)
// return numeric value only (unit: µM, not printed)

Input: # IC50 lookup, item `C=C(CCCCC)[C@@H](O)[C@H](C)C(=O)N1C(=O)OC[C@@H]1C(C)C`
Output: 5.9

###

experiment: Metabolic stability in mouse microsomes assessed as half life; assay type: ADME, Microsome
Readout: half-life

Input: # half-life lookup, item `CC[C@H](NC(=O)[C@H]1CN(c2ccc(C(=N)N)cc2)C(=O)O1)c1cccc2ccccc12`
Output: > 3 h

###

test system: L02; assay: Anticancer activity against human L02 cells assessed as cell growth inhibition incubated for 48 hrs by MTT assay; assay type: functional, cell-based; settings: L02, 48 h
Readout: IC50 (µM)
// return numeric value only (unit: µM, not printed)

Input: # IC50 lookup, item `CC(=O)NC[C@H]1CN(c2ccc(-n3cc(-c4ccccn4)cn3)c(F)c2)C(=O)O1`
Output: 50

###

test system: MGC-803; test: Anticancer activity against human MGC-803 cells assessed as cell growth inhibition incubated for 48 hrs by MTT assay; format: functional, cell-based; conditions: MGC-803, 48 h
Readout: pIC50
Would you please state pIC50, meaning minus log10 of the concentration in mol/L, as a bare number?

Input: # pIC50 lookup, item CC(C)c1ccc2c(c1)CCC1[C@](C)(C(=O)OCC3CN(c4ccc(F)cc4)C(=O)O3)CCC[C@]21C (stereo partly specified)
Output: 5.42

###

system: SK-OV-3; assay: Anticancer activity against human SK-OV-3 cells assessed as cell growth inhibition incubated for 48 hrs by MTT assay; format: functional, cell-based; conditions: SK-OV-3, 48 h
Readout: pIC50
Would you please state pIC50, meaning minus log10 of the concentration in mol/L, as a bare number?

Input: # pIC50 lookup, item CC(C)c1ccc2c(c1)CCC1[C@](C)(C(=O)OCC3CN(c4ccc(F)cc4)C(=O)O3)CCC[C@]21C (stereo partly specified)
Output: 5.42

Measured values drawn from ChEMBL document CHEMBL5257153 for this set.
